measurement.description: Compound was evaluated for lethal dose in mice when administarted intraperitoneally
Format: toxicity, organism-based
conditions.used: mouse, in vivo, ip
metric.name: LD50

{"columns": ["compound", "observed.value"],
 "data": [
  ["CCc1cccc(-c2nc3cc(OC)ccc3[nH]2)n1", "> 300 mg/kg"],
  ["CCc1ccc(-c2nc3cc(OC)ccc3[nH]2)nc1", "> 300 mg/kg"],
  ["CCc1cccc(-c2nc3ccccc3[nH]2)n1", "> 300 mg/kg"],
  ["COc1cccc(-c2nc3ccccc3[nH]2)n1", "> 300 mg/kg"]
]}
